test system: Candida albicans; assay: Percent inhibition of transport of (Met)3 into Candida albicans H-317; format: functional; design: concentration or dose not given beside the values
Reported values of Inhibition for individual entries
I only need the number, in %, no unit after it.

compound | unit.annotation | Inhibition
CCCCCCC(N)C(=O)NC(C(=O)O)[C@H]1O[C@@H](n2ccc(=O)[nH]c2=O)[C@H](O)[C@@H]1O (stereo in doubt; 3a) | % | 6
CCCCCCCCCCC(N)C(=O)NC(C(=O)O)[C@H]1O[C@@H](n2ccc(=O)[nH]c2=O)[C@H](O)[C@@H]1O (stereo partly specified) | % | 0
NC(C(=O)O)[C@H]1O[C@@H](n2ccc(=O)[nH]c2=O)[C@H](O)[C@@H]1O (stereo partly specified) | % | 3
CCCCCCCCCCCCCCC(N)C(=O)NC(C(=O)O)[C@H]1O[C@@H](n2ccc(=O)[nH]c2=O)[C@H](O)[C@@H]1O (stereo in doubt; 5b) | % | 10

Inhibition measured on CCCCCCC(N)C(=O)NC(C(=O)O)[C@H]1O[C@@H](n2ccc(=O)[nH]c2=O)[C@H](O)[C@@H]1O (stereo in doubt; 3b) = 10

Consider NC(=O)OCC(O)C(O)C(N)C(=O)NC(C(=O)O)[C@H]1O[C@@H](n2cc(C(=O)O)c(=O)[nH]c2=O)[C@H](O)[C@@H]1O (stereo partly specified) . Its measured Inhibition is 10

Where do the numbers come from? From ChEMBL document CHEMBL1124064.
